Provenance of the data: ChEMBL document CHEMBL1132335

- TARGET: Endothelin-1 receptor (Homo sapiens, UniProt P25101)
- MEASUREMENT PROTOCOL: Inhibition of [125I]-ET-1 (ETA assay) binding to human cloned Endothelin A receptor in CHO cells
Record form. Attribute: Ki. Fill in for each entry.
Report only the number, with the unit nM understood.

Any idea what Ki came out for COc1cc(C)nc(OC(C(=O)O)C(OCCc2ccc(OC)c(OC)c2)(c2ccccc2)c2ccccc2)n1 (stereo not drawn) on Endothelin-1 receptor (Homo sapiens, UniProt P25101)? 2.37

Would you mind doing Cc1ccc(CCCOC(c2ccccc2)(c2ccccc2)C(Oc2nc(C)cc(C)n2)C(=O)O)cc1 (stereo not drawn) as well? 23

Would you mind doing COc1cc(/C=C/COC(c2ccccc2)(c2ccccc2)C(Oc2nc(C)cc(C)n2)C(=O)O)cc(OC)c1OC (stereo not drawn) as well? 48

Would you mind doing Cc1cc(C)nc(OC(C(=O)O)C(OCCc2ccc(C(=O)O)cc2)(c2ccccc2)c2ccccc2)n1 (stereo not drawn) as well? 1.5

Would you mind doing COc1cc(CCOC(c2ccccc2)(c2ccccc2)C(Oc2nc(C)cc(C)n2)C(=O)O)cc(OC)c1OC (stereo not drawn) as well? 1.38

Would you mind doing Cc1ccc(CCOC(c2ccccc2)(c2ccccc2)C(Oc2nc(C)cc(C)n2)C(=O)O)cc1 (stereo not drawn) as well? 32.5

Would you mind doing COc1ccc(CCOC(c2ccc(C)cc2)(c2ccc(C)cc2)C(Oc2nc(OC)c3c(n2)OCC3)C(=O)O)cc1 (stereo not drawn) as well? 105

Would you mind doing COc1ccc(COC(c2ccccc2)(c2ccccc2)C(Oc2nc(C)cc(C)n2)C(=O)O)cc1OC (stereo not drawn) as well? 2

* * *

- TARGET: Endothelin receptor, ET-A/ET-B (Homo sapiens) (UniProt P24530+P25101)
- Sequence (P24530 whole entry, looked up): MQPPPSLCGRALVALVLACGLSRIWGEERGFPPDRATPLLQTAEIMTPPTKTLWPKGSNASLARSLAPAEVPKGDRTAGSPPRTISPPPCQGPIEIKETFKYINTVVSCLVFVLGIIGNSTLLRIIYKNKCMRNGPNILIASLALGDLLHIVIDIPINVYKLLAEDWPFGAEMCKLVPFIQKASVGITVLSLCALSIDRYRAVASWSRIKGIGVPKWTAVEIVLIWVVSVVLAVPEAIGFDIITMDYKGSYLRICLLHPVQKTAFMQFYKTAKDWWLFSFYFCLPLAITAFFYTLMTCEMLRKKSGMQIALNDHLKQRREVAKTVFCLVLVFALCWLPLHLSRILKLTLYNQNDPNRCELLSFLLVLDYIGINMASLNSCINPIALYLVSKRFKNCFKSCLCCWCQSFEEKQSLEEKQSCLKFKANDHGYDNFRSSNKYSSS
- Sequence (P25101 whole entry, looked up): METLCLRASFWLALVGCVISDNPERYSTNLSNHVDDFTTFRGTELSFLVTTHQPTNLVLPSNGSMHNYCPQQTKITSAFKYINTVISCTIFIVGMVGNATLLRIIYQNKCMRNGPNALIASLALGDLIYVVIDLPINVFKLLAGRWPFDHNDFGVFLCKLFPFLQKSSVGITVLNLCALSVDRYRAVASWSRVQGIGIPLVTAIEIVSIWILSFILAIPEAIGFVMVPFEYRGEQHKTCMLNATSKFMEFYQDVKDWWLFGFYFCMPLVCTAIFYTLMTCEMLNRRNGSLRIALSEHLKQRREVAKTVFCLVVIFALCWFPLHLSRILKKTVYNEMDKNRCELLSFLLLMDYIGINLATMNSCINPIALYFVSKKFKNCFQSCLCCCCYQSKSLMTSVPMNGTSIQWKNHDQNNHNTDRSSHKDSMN
- MEASUREMENT PROTOCOL: Selectivity for Endothelin A receptor compared to Endothelin B receptor.
- Format: protein assay
Each record's class is read off its Ratio using these ranges: bottom: < 1; middle: ≥ 1 and < 8; top: ≥ 8

Would you mind sorting Cc1cc(C)nc(OC(C(=O)O)C(OCCc2ccc(O)cc2)(c2ccccc2)c2ccccc2)n1 (stereo unspecified) into the appropriate category? middle

Would you mind doing CCc1ccc(C(OCCc2ccc(OC)cc2)(c2ccc(CC)cc2)C(Oc2nc(C)cc(C)n2)C(=O)O)cc1 (stereo unspecified) as well? bottom

Would you mind doing COc1ccc(OC(c2ccccc2)(c2ccccc2)C(Oc2nc(C)cc(C)n2)C(=O)O)cc1OC (stereo unspecified) as well? top

Would you mind doing COc1ccc(CCOC(c2ccc(C)cc2)(c2ccc(C)cc2)C(Oc2nc(OC)c3c(n2)OCC3)C(=O)O)cc1 (stereo unspecified) as well? bottom

Would you mind doing COc1ccc(CCOC(c2ccc(Cl)cc2)(c2ccc(Cl)cc2)C(Oc2nc3c(c(OC)n2)CCC3)C(=O)O)cc1OC (stereo unspecified) as well? bottom

Would you mind doing COc1ccc(CCOC(c2ccccc2)(c2ccccc2)C(Oc2nc(C)cc(OC)n2)C(=O)O)cc1 (stereo unspecified) as well? top

Would you mind doing COc1cc(CCOC(c2ccccc2)(c2ccccc2)C(Oc2nc(C)cc(C)n2)C(=O)O)ccc1OCC(=O)O (stereo unspecified) as well? top

Would you mind doing COc1cc(CCOC(c2ccccc2)(c2ccccc2)C(Oc2nc(C)cc(C)n2)C(=O)O)cc(OC)c1OC (stereo unspecified) as well? middle

Would you mind doing `COc1ccc(CCOC(c2ccccc2)(c2ccccc2)[C@H](Oc2nc(C)cc(C)n2)C(=O)O)cc1OC` as well? middle

Would you mind doing Cc1cc(C)nc(OC(C(=O)O)C(OCCc2ccc(Cl)cc2)(c2ccccc2)c2ccccc2)n1 (stereo unspecified) as well? middle

Would you mind doing COc1ccc(CCOC(c2ccccc2)(c2ccccc2)C(Oc2nc(C)cc(C)n2)C(=O)O)cc1 (stereo unspecified) as well? middle

Would you mind doing COc1cc(C)nc(OC(C(=O)O)C(OCCc2ccc(OC)c(OC)c2)(c2ccc(Cl)cc2)c2ccc(Cl)cc2)n1 (stereo unspecified) as well? bottom

Would you mind doing COc1ccc(CCOC(c2ccccc2)(c2ccccc2)C(Oc2nc(C)cc(C)n2)C(=O)O)cc1OC (stereo unspecified) as well? middle

Would you mind doing COc1ccc(COC(c2ccccc2)(c2ccccc2)C(Oc2nc(C)cc(C)n2)C(=O)O)cc1OC (stereo unspecified) as well? top

Would you mind doing COc1cc(C)nc(OC(C(=O)O)C(OCCc2ccc(OC)c(OC)c2)(c2ccccc2)c2ccccc2)n1 (stereo unspecified) as well? middle

Would you mind doing COc1cc(/C=C/COC(c2ccccc2)(c2ccccc2)C(Oc2nc(C)cc(C)n2)C(=O)O)cc(OC)c1OC (stereo unspecified) as well? bottom

Would you mind doing Cc1cc(C)nc(OC(C(=O)O)C(OCCc2ccccc2)(c2ccccc2)c2ccccc2)n1 (stereo unspecified) as well? top

Would you mind doing Cc1cc(C)nc(OC(C(=O)O)C(OCCc2ccc(C(=O)O)cc2)(c2ccccc2)c2ccccc2)n1 (stereo unspecified) as well? top
